Assay details: Phase I dose escalation trial: pharmacokinetic profile
Assay type: in vivo, human
Condition context: human, plasma, oral, 800 mg, Total Daily Dose 800 (mg), bid q4h, patient plasma; read-out: AUC0-24
Source text: Pharmacokinetics profile with oral bid dosing was also studied. The plasma concentration of the drug reached several folds over the efficacious concentration (in vitro IC50) as illustrated in Table 8. […]
Readout type: AUC(0-t) (µM·h)
All answers are understood in µM·h, so give the number only.

// query Reported AUC(0-t) for CC(=O)c1cc2c(o1)C(=O)c1ccccc1C2=O [Compound 1, 2-acetylnaphtho[2,3-b]furan-4,9-dione] : what is it?
// result 26.1

----------
Assay details: Phase I dose escalation trial: pharmacokinetic profile
Assay type: in vivo, human
Condition context: human, plasma, oral, 20 mg, Total Daily Dose 20 (mg), qd, patient plasma
Readout type: Tmax
Write the quantity with the unit trailing the number.

// query Reported Tmax for CC(=O)c1cc2c(o1)C(=O)c1ccccc1C2=O [Compound 1, 2-acetylnaphtho[2,3-b]furan-4,9-dione] : what is it?
// result 3 h

----------
Assay details: Phase I dose escalation trial: pharmacokinetic profile
Type: in vivo, human
Condition context: human, plasma, oral, 20 mg, Total Daily Dose 20 (mg), qd, patient plasma; read-out: AUC0-24
Readout type: AUC(0-t) (µM·h)
All answers are understood in µM·h, so give the number only.

// query Reported AUC(0-t) for CC(=O)c1cc2c(o1)C(=O)c1ccccc1C2=O [Compound 1, 2-acetylnaphtho[2,3-b]furan-4,9-dione] : what is it?
// result 2.01

----------
Assay details: Phase I dose escalation trial: pharmacokinetic profile
Format: in vivo, human
Condition context: human, plasma, oral, 800 mg, Total Daily Dose 800 (mg), bid q4h, patient plasma; read-out: T1/2,t (converted)
Readout type: half-life

// query Reported half-life for CC(=O)c1cc2c(o1)C(=O)c1ccccc1C2=O [Compound 1, 2-acetylnaphtho[2,3-b]furan-4,9-dione] : what is it?
// result 4 h

----------
Assay details: Phase I dose escalation trial: pharmacokinetic profile
Type: in vivo, human
Condition context: human, plasma, oral, 1000 mg, Total Daily Dose 1000 (mg), bid q6h, patient plasma
Readout type: AUC (µM·h)
All answers are understood in µM·h, so give the number only.

// query Reported AUC for CC(=O)c1cc2c(o1)C(=O)c1ccccc1C2=O [Compound 1, 2-acetylnaphtho[2,3-b]furan-4,9-dione] : what is it?
// result 22.9

----------
Assay details: Phase I dose escalation trial: pharmacokinetic profile
Type: in vivo, human
Condition context: human, plasma, oral, 1000 mg, Total Daily Dose 1000 (mg), bid q4h, patient plasma; read-out: AUC0-24
Readout type: AUC(0-t)
Write the quantity with the unit trailing the number.

// query Reported AUC(0-t) for CC(=O)c1cc2c(o1)C(=O)c1ccccc1C2=O [Compound 1, 2-acetylnaphtho[2,3-b]furan-4,9-dione] : what is it?
// result 45.1 µM·h

----------
Assay details: Phase I dose escalation trial: pharmacokinetic profile
Assay type: in vivo, human
Condition context: human, plasma, oral, 2000 mg, Total Daily Dose 2000 (mg), bid q4h, patient plasma
Readout type: Cmax (nM)
All answers are understood in nM, so give the number only.

// query Reported Cmax for CC(=O)c1cc2c(o1)C(=O)c1ccccc1C2=O [Compound 1, 2-acetylnaphtho[2,3-b]furan-4,9-dione] : what is it?
// result 1690

----------
Assay details: Phase I dose escalation trial: pharmacokinetic profile
Assay type: in vivo, human
Condition context: human, plasma, oral, 1400 mg, Total Daily Dose 1400 (mg), bid q4h, patient plasma
Readout type: Tmax
Write the quantity with the unit trailing the number.

// query Reported Tmax for CC(=O)c1cc2c(o1)C(=O)c1ccccc1C2=O [Compound 1, 2-acetylnaphtho[2,3-b]furan-4,9-dione] : what is it?
// result 2.9 h

----------
Assay details: Phase I dose escalation trial: pharmacokinetic profile
Type: in vivo, human
Condition context: human, plasma, oral, 80 mg, Total Daily Dose 80 (mg), bid q4h, patient plasma
Readout type: Tmax (h)
All answers are understood in h, so give the number only.

// query Reported Tmax for CC(=O)c1cc2c(o1)C(=O)c1ccccc1C2=O [Compound 1, 2-acetylnaphtho[2,3-b]furan-4,9-dione] : what is it?
// result 8.1

----------
Assay details: Phase I dose escalation trial: pharmacokinetic profile
Format: in vivo, human
Condition context: human, plasma, oral, 20 mg, Total Daily Dose 20 (mg), qd, patient plasma; read-out: C24h
Readout type: concentration at 24 h
Write the quantity with the unit trailing the number.

// query Reported concentration at 24 h for CC(=O)c1cc2c(o1)C(=O)c1ccccc1C2=O [Compound 1, 2-acetylnaphtho[2,3-b]furan-4,9-dione] : what is it?
// result 30 nM

----------
Assay details: Pharmacokinetics when taken fasting, with milk or with food
Type: in vivo, human
Condition context: human, in vivo, oral, Patient 24, With Food
Readout type: Tmax

// query Reported Tmax for CC(=O)c1cc2c(o1)C(=O)c1ccccc1C2=O [Compound 1, 2-acetylnaphtho[2,3-b]furan-4,9-dione] : what is it?
// result 10 h

----------
Assay details: Pharmacokinetics when taken fasting, with milk or with food
Type: in vivo, human
Condition context: human, in vivo, oral, Patient 27, With Food
Description: In yet another suitable dosing regimen, Compound 1 was administered with a fluid, e.g., a milk or water, with empty stomach which improves pharmacokinetical exposure (Table 12). Counterintuitively, milk helped patients with gastrointestinal adverse effects. In yet another suitable dosing regimen, Compound 1 was administered with food which delayed the Tmax (Table 13).
Readout type: Tmax (h)
All answers are understood in h, so give the number only.

// query Reported Tmax for CC(=O)c1cc2c(o1)C(=O)c1ccccc1C2=O [Compound 1, 2-acetylnaphtho[2,3-b]furan-4,9-dione] : what is it?
// result 6

----------
Assay details: Phase I dose escalation trial: pharmacokinetic profile
Format: in vivo, human
Condition context: human, plasma, oral, 2000 mg, Total Daily Dose 2000 (mg), bid q4h, patient plasma; read-out: T1/2,t (converted)
Readout type: half-life (h)
All answers are understood in h, so give the number only.

// query Reported half-life for CC(=O)c1cc2c(o1)C(=O)c1ccccc1C2=O [Compound 1, 2-acetylnaphtho[2,3-b]furan-4,9-dione] : what is it?
// result 17.2

----------
Assay details: Phase I dose escalation trial: pharmacokinetic profile
Assay type: in vivo, human
Condition context: human, plasma, oral, 2000 mg, Total Daily Dose 2000 (mg), bid q4h, patient plasma
Readout type: AUC
Write the quantity with the unit trailing the number.

// query Reported AUC for CC(=O)c1cc2c(o1)C(=O)c1ccccc1C2=O [Compound 1, 2-acetylnaphtho[2,3-b]furan-4,9-dione] : what is it?
// result 45.8 µM·h

----------
Assay details: Phase I dose escalation trial: pharmacokinetic profile
Format: in vivo, human
Condition context: human, plasma, oral, 800 mg, Total Daily Dose 800 (mg), bid q4h, patient plasma; read-out: C24h
Readout type: concentration at 24 h

// query Reported concentration at 24 h for CC(=O)c1cc2c(o1)C(=O)c1ccccc1C2=O [Compound 1, 2-acetylnaphtho[2,3-b]furan-4,9-dione] : what is it?
// result 160 nM

----------
Assay details: Pharmacokinetics when taken fasting, with milk or with food
Format: in vivo, human
Condition context: human, in vivo, oral, Patient 21, Fasting
Readout type: Tmax (h)
All answers are understood in h, so give the number only.

// query Reported Tmax for CC(=O)c1cc2c(o1)C(=O)c1ccccc1C2=O [Compound 1, 2-acetylnaphtho[2,3-b]furan-4,9-dione] : what is it?
// result 6

----------
Assay details: Pharmacokinetics when taken fasting, with milk or with food
Format: in vivo, human
Condition context: human, in vivo, oral, Patient 20, Fasting
Readout type: Tmax (h)
All answers are understood in h, so give the number only.

// query Reported Tmax for CC(=O)c1cc2c(o1)C(=O)c1ccccc1C2=O [Compound 1, 2-acetylnaphtho[2,3-b]furan-4,9-dione] : what is it?
// result 2

----------
Assay details: Pharmacokinetics when taken fasting, with milk or with food
Type: in vivo, human
Condition context: human, in vivo, oral, Patient 28, With Food
Readout type: Tmax (h)
All answers are understood in h, so give the number only.

// query Reported Tmax for CC(=O)c1cc2c(o1)C(=O)c1ccccc1C2=O [Compound 1, 2-acetylnaphtho[2,3-b]furan-4,9-dione] : what is it?
// result 10

----------
Assay details: Phase I dose escalation trial: pharmacokinetic profile
Format: in vivo, human
Condition context: human, plasma, oral, 20 mg, Total Daily Dose 20 (mg), qd, patient plasma
Readout type: Cmax (nM)
All answers are understood in nM, so give the number only.

// query Reported Cmax for CC(=O)c1cc2c(o1)C(=O)c1ccccc1C2=O [Compound 1, 2-acetylnaphtho[2,3-b]furan-4,9-dione] : what is it?
// result 490

----------
Assay details: Phase I dose escalation trial: pharmacokinetic profile
Format: in vivo, human
Condition context: human, plasma, oral, 600 mg, Total Daily Dose 600 (mg), bid q4h, patient plasma; read-out: T1/2,t (converted)
Readout type: half-life (h)
All answers are understood in h, so give the number only.

// query Reported half-life for CC(=O)c1cc2c(o1)C(=O)c1ccccc1C2=O [Compound 1, 2-acetylnaphtho[2,3-b]furan-4,9-dione] : what is it?
// result 9
